A collection of compounds and their measured Predicted Hepatic Clearance (Pred. Cl.)
# MEASUREMENT_NOTES: Microsomal stability, human liver microsomes (predicted hepatic clearance)
# CONDITION_CONTEXT: predicted from in vitro microsomal stability data
Just the number in mL/min/kg, nothing appended.

Would you please look over these solved cases?
COCC1(Cn2c(Cc3cc(F)c(-c4cccc(OCc5ccc(C#N)cc5F)n4)cc3F)nc3ccc(C(=O)O)cc32)CC1	1.83
CO[C@H]1CN(C(C)=O)C[C@H]1n1c(Cc2cc(F)c(-c3cccc(OCc4ccc(C#N)cc4F)n3)cc2F)nc2ccc(C(=O)O)cc21	4.83
COCCn1c(Cc2ccc(-c3cccc(OCc4ccccc4NC(=O)OC(C)(C)C)n3)cc2F)nc2ccc(C(=O)O)cc21	12.5

Look at this compound and give its reported Predicted Hepatic Clearance (Pred. Cl.). `N#Cc1ccc(COc2cccc(-c3cc(F)c(Cc4nc5ccc(C(=O)O)cc5n4[C@H]4CCC[C@@]45CCCO5)cc3F)n2)c(F)c1`
11

Given `N#Cc1ccc(COc2cccc(-c3ccc(Cc4nc5c(F)cc(C(=O)O)cc5n4CC4(CF)CC4)c(F)c3)n2)c(F)c1` , state its recorded Predicted Hepatic Clearance (Pred. Cl.).
2.83

Which Predicted Hepatic Clearance (Pred. Cl.) reading was recorded for the compound `COCCn1c(Cc2cc(F)c(-c3cccc(OCc4cccnc4OC(F)F)n3)cc2F)nc2ccc(C(=O)O)cc21` ?
20

----------
# SYSTEM_UNDER_TEST: GLP-1R (Homo sapiens, UniProt P43220)
# Sequence (P43220 24-463): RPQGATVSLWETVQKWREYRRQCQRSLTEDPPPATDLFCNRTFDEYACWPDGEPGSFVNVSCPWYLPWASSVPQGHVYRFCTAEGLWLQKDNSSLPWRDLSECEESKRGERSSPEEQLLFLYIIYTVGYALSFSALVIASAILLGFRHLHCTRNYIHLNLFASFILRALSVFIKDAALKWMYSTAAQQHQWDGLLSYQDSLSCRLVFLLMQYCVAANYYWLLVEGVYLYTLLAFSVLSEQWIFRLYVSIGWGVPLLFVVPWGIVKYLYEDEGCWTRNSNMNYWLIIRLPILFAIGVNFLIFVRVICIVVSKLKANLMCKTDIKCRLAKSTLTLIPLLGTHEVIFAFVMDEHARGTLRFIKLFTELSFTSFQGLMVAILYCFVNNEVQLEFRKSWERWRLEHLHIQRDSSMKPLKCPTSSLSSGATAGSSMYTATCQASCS
# MEASUREMENT_NOTES: GLP-1R activation: cAMP increase in CHO cells stably expressing GLP-1R
# Assay type: cell-based
# CONDITION_CONTEXT: cAMP increase, CHO cells stably expressing GLP-1R, 10 point dose response, 30 minutes incubation; read-out: EC50
pEC50: −log10 of the molar value.
Outcome label depends on pEC50 relative to 9: at/above gives yes, below gives no.

Record excerpt, results attached:
COC(CNC(C)=O)Cn1c(Cc2ccc(-c3cccc(OCc4ccc(C#N)cc4F)n3)cc2F)nc2ccc(C(=O)O)cc21 (single isomer, unassigned) [Example 341]	no
O=C(O)c1ccc2nc(Cc3ccc(-c4ccnc(OCc5ccc(C(F)(F)F)cc5F)n4)c(F)c3)n(C[C@@H]3CCO3)c2c1	yes
COCCn1c(Cc2cc(F)c(-c3cccc(OCc4ccc(C)cc4)n3)cc2F)nc2ccc(C(=O)O)cc21	no

Could you now consider this next compound?
Kindly determine if pEC50 recorded for `COCCn1c(Cc2ccc(-c3cccc(OCc4cccc5c4OCCC5)n3)cc2F)nc2ccc(C(=O)O)cc21` is above or exactly 9.
no

----------
# maps each entry to its EC50
# SYSTEM_UNDER_TEST: GLP-1R (Homo sapiens, UniProt P43220)
# MEASUREMENT_NOTES: GLP-1R activation: cAMP increase in CHO cells stably expressing GLP-1R
# Type: cell-based
# CONDITION_CONTEXT: cAMP increase, CHO cells stably expressing GLP-1R, 10 point dose response, 30 minutes incubation; read-out: EC50
Answer format: numeric, nM implied, no suffix.

CO[C@H]1C[C@@H](Cn2c(Cc3cc(F)c(-c4cccc(OCc5ccc(C#N)cc5F)n4)cc3F)nc3ccc(C(=O)O)cc32)C1 [Example 744]	10.6
N#Cc1ccc(COc2cccc(-c3cc(F)c(Cc4nc5ccc(C(=O)O)cc5n4CCOCC(F)F)cc3F)n2)c(F)c1 [Example 828]	3.5

// returns reported EC50 for input COCCn1c(Cc2ccc(-c3cccc(OCc4ccc(C#N)cc4F)n3)cc2F)nc2ccc(C(=O)O)c(F)c21 [Example 364]
1.76

Looking for the measured EC50 of N#Cc1cc(F)c(COc2cccc(-c3ccc(Cc4nc5c(F)cc(C(=O)O)cc5n4C[C@@H]4CCO4)cc3F)n2)cc1F [Example 776] , can you help?
26.9

----------
# SYSTEM_UNDER_TEST: GLP-1R (Homo sapiens, UniProt P43220)
# MEASUREMENT_NOTES: GLP-1R activation: cAMP increase in CHO cells stably expressing GLP-1R
# Format: cell-based
# CONDITION_CONTEXT: EC50 (nM)
// NB: equality with 8 nM counts as not satisfied; only EC50 strictly below is satisfied

COCCn1c(Cc2ccc(-c3cccc(OCc4ccc(C#N)cc4F)n3)cc2NC(=O)OC)nc2ccc(C(=O)O)cc21	not satisfied
COCCn1c(Cc2ccc(-c3cccc(OCc4ccc(C#N)cc4F)n3)c(C)c2)nc2ccc(C(=O)O)cc21 [Example 20]	not satisfied
COCCn1c(Cc2c(F)cc(-c3cccc(OCc4ccc(C#N)cc4F)n3)cc2C#N)nc2ccc(C(=O)O)cc21	satisfied

EC50 under 8 nM? Item: `COCCn1c(Cc2cc(F)c(-c3ccc(F)c(OCc4ccc(C#N)cc4F)n3)cc2F)nc2ccc(C(=O)O)cc21`
satisfied

Here's an entry: `COCCn1c(Cc2c(F)cc(-c3cccc(OCc4ccc(C#N)cc4F)n3)c(F)c2F)nc2ccc(C(=O)O)cc21` . Is its EC50 below 8 nM?
satisfied

----------
# SYSTEM_UNDER_TEST: UniProt P43220
# MEASUREMENT_NOTES: GLP-1R activation: cAMP increase in CHO cells stably expressing GLP-1R
# Type: cell-based
# CONDITION_CONTEXT: cAMP increase, CHO cells stably expressing GLP-1R, 10 point dose response, 30 minutes incubation; read-out: EC50
Below: a set of entries, each annotated with reported EC50.

O=C(O)c1ccc2nc(Cc3cc(F)c(-c4cccc(OCc5ccc(Cl)cc5F)n4)cc3F)n(C[C@@H]3CCO3)c2c1	0.51 nM
COCCn1c(Cc2ccc(-c3nc(OCc4ccc(C#N)cc4F)c(F)cc3F)cc2F)nc2ccc(C(=O)O)cc21	6.13 nM

Bench note: what EC50 did COCCn1c(C2CCc3cc(-c4cccc(OCc5ccc(C#N)cc5F)n4)ccc32)nc2ccc(C(=O)O)cc21 (single isomer, unassigned) [Example 47] show?
1440 nM

----------
# SYSTEM_UNDER_TEST: GLP-1R (Homo sapiens, UniProt P43220)
# MEASUREMENT_NOTES: GLP-1R activation: cAMP increase in CHO cells stably expressing GLP-1R
# Assay type: cell-based
# CONDITION_CONTEXT: cAMP increase, CHO cells stably expressing GLP-1R, 10 point dose response, 30 minutes incubation; read-out: EC50
READOUT_TYPE: EC50 (nM)
Report the value in nM with no unit label.

Would you please look over these solved cases?
COCCn1c(Cc2ccc(-c3cccc(OCc4cccc(C5CC5)c4)n3)cc2F)nc2ccc(C(=O)O)cc21	32.2
N#Cc1ccc(COc2cccc(-c3ccc(Cc4nc5ccc(C(=O)O)cc5n4CC4CCS4(=O)=O)c(F)c3)n2)c(F)c1 (single isomer, unassigned) [Example 70]	64
N#Cc1ccc(COc2cccc(-c3ccc(Cc4nc5ccc(C(=O)O)cc5n4CCCO)c(F)c3)n2)c(F)c1	14.5
COCCn1c(Cc2cc(F)c(-c3cccc(OCc4cc(Cl)ccc4F)n3)cc2F)nc2ccc(C(=O)O)cc21	50.5
COCCn1c(Cc2cc(F)c(-c3cccc(OCc4ccc(C(F)F)cc4)n3)cc2F)nc2ccc(C(=O)O)cc21	1.05

Look up EC50 for this molecule: `COCCn1c(Cc2c(F)cc(-c3cccnc3OCc3ccccc3F)cc2F)nc2ccc(C(=O)O)cc21`
437

Recorded EC50 for `COCCn1c(Cc2cc(F)c(-c3cccc(OCc4ccc(-n5cccn5)nc4)n3)cc2F)nc2ccc(C(=O)O)cc21` , please?
29.8

Look up EC50 for this molecule: `COCCn1c(Cc2ccc(-c3cccc(OCc4ccc(C#N)cc4F)n3)cc2-c2cccc([N+](=O)[O-])c2)nc2ccc(C(=O)O)cc21`
723

----------
# MEASUREMENT_NOTES: Microsomal stability, human liver microsomes (predicted hepatic clearance)
# CONDITION_CONTEXT: predicted from in vitro microsomal stability data
Predicted Hepatic Clearance (Pred. Cl.) overview
Use L/h/kg as the unit, but write only the number.

COCCn1c(Cc2ccc(-c3cccc(OCc4cc(C(C)C)ccc4OC)n3)cc2F)nc2ccc(C(=O)O)cc21 [Example 145]	0.5
COCCn1c(C2OCCc3cc(-c4cccc(OCc5ccc(C#N)cc5F)n4)ccc32)nc2ccc(C(=O)O)cc21 (single isomer, unassigned) [Example 49]	0.78
COCCn1c(Cc2ccc(-c3cc(-c4cnn(C)c4)cc(OCc4ccc(C#N)cc4F)n3)cc2F)nc2ccc(C(=O)O)cc21 [Example 99]	0.14
N#Cc1ccc(COc2cccc(-c3cc(F)c(Cc4nc5ccc(C(=O)O)cc5n4C4CCCOC4)cc3F)n2)c(F)c1 (stereo not drawn) [Example 838]	0.26
CC(=O)N1C[C@H](O)C[C@@H]1Cn1c(Cc2cc(F)c(-c3cccc(OCc4ccc(C#N)cc4F)n3)cc2F)nc2ccc(C(=O)O)cc21 [Example 848]	0.17

Now let's try a different one.
Given the compound COCCn1c(Cc2ccc(-c3cccc(OCn4ccc(C(N)=O)cc4=O)n3)cc2F)nc2ccc(C(=O)O)cc21 [Example 502] , what is its reported Predicted Hepatic Clearance (Pred. Cl.)?
0.16
